All values here come from the supplement of paper PMC9233669.

# Test system: biotinyl-Trp-oxazolone
# procedure text: self-aminoacylation, catalytic enhancement (BWO) (fold over background); higher = more active; k-Seq, kA / k0A0; sequences stand for … in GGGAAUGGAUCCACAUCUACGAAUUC…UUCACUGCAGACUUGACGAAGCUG
Variants at the floor of the assay were thinned out.
measured attribute: self-aminoacylation
Give bare numbers.

The cases that follow already have their self-aminoacylation on record.
{"sequence data": "AUUACCCAGCUCAUCGAGUGA [Fam2.1 aminoacylation ribozyme variant]", "measurement": 1.32}
{"sequence data": "UUUACCCUGGUCAUCCAGUGA [Fam2.1 aminoacylation ribozyme variant]", "measurement": 6.23}
{"sequence data": "AUUCACCUAGGUGGUCGGGUG [Fam2.2 aminoacylation ribozyme variant]", "measurement": 3.42}

Can you give me self-aminoacylation for all of these, one by one?
1. AAUCACCUAGGUCAUCGCGUG [Fam2.2 aminoacylation ribozyme variant]
2. UAGUUUGCUAAUAGUCACAAG [Fam3.1 aminoacylation ribozyme variant]
3. ACGUUUGCUAACAGUCGCAAG [Fam3.1 aminoacylation ribozyme variant]
4. AUGUUUGGUAAUAGUCGCAAG [Fam3.1 aminoacylation ribozyme variant]
5. AAGUUAGCUAAUAGUCGGAAG [Fam3.1 aminoacylation ribozyme variant]

1. 10.4
2. 2.38
3. 1.94
4. 2.15
5. 1.94

Looking up CUUCACCUAGGUCAUCAGGUG [Fam2.2 aminoacylation ribozyme variant] , I see its self-aminoacylation listed as 1.31
